Test system: Aβ40
Test name: Aβ40 content secreted by HEK293APP/sw overexpression cells after compound treatment (ELISA of supernatant)
Type: cell-based
Condition summary: APP/293 cells, 400 μM, 24 h; in words
Quantity name: content of Aβ40 compared with benfotiamine in Comparative Example 2

Molecule	Observed value
CCC(C)C(=O)S/C(CCOP(=O)(O)O)=C(/C)N(C=O)Cc1cnc(C)nc1N (stereo not shown)	significantly reduced
C/C(=C(\CCOP(=O)(O)O)SC(=O)C(C)C)N(C=O)Cc1cnc(C)nc1N	significantly reduced
CCC/C=C/C(=O)S/C(CCOP(=O)(O)O)=C(/C)N(C=O)Cc1cnc(C)nc1N	significantly reduced
